Quick reference for Ki among some compounds
# experimental_system: 5-hydroxytryptamine receptor 7 (Homo sapiens)
# Sequence (P34969 whole entry): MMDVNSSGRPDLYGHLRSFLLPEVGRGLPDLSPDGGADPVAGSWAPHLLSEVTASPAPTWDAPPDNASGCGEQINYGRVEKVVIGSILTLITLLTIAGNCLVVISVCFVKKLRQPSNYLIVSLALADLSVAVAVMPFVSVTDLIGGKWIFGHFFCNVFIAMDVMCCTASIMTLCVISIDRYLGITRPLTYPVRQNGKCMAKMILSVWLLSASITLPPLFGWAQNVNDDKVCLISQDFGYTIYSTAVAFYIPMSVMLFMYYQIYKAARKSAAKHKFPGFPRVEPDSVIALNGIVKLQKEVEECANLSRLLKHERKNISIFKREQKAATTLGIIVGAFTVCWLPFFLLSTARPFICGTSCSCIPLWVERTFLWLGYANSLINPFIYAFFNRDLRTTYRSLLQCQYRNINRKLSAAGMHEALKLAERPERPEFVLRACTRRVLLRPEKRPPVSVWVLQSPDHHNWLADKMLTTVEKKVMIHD
# procedure_text: Displacement of [3H] D-lysergic acid diethylamide from 5-HT7R (unknown origin) transfected in HEK293 cells incubated for 1.5 hrs by microbeta scintillation counter analysis
Response body: numeric value in nM, unit text excluded.

CNCCc1ccc(Cl)c(-c2ccccc2OC)c1; 2.8

Proceed to the following item.
Request: Name the recorded Ki for CCNCCc1ccc(Cl)c(-c2ccccc2OC)c1 .
Response: 1.58

The reported measurements were obtained from BindingDB's records for doi:10.1021/acs.jmedchem.1c00110.
